Values were extracted from ChEMBL document CHEMBL1128485.

assayed_target: Steroid 5-alpha-reductase (Rattus norvegicus, UniProt P24008+P31214)
assay_method_text: Inhibitory activity against Steroid 5-alpha-reductase in prostates from male rats
Type: tissue-based, Prostate gland
metric_name: IC50 (nM)
# number only, unit nM dropped from output

CCCn1ccc2cc(/C(C)=C/C(=O)Nc3ccccc3OCCCC(=O)O)ccc21 | 190
CCCCC(c1ccccc1)n1ccc2cc(/C(C)=C/C(=O)Nc3ccccc3OCCCC(=O)O)ccc21 (stereo not given) | 9.8
C/C(=C\C(=O)Nc1cccc(F)c1OCCCC(=O)O)c1ccc2c(ccn2C(c2ccccc2)c2ccccc2)c1 | 15
C/C(=C\C(=O)Nc1ccccc1OCCCC(=O)O)c1ccc2c(ccn2C(c2ccccc2C)c2ccccc2C)c1 | 19

Here is the next item to consider.
# IC50 measured on Steroid 5-alpha-reductase (Rattus norvegicus, UniProt P24008+P31214) for item C/C(=C\C(=O)Nc1ccccc1OCCCC(=O)O)c1ccc2c(ccn2C(c2ccc(C)cc2)c2ccc(C)cc2)c1 = 8.8
